Origin of measurements: PubChem BioAssay (NCI)

Test system: SK-MEL-2 melanoma
Assay procedure: NCI-60 one-dose screen, 48 h (100 = growth as untreated, 0 = no growth, -100 = all killed)
Reported conditions: 10 µM unless noted
Method: Growth inhibition of the SK-MEL-2 human tumor cell line is measured as a screen for anti-cancer activity. Cells are grown in 96 well plates and exposed to the test compound for 48 hours. Compounds are tested at a single concentration, which is 10^-5 M for most compounds. The reported endpoint is percent growth (GI% or GIPRCNT), where numbers from 0 - 100% represent growth inhibition, and numbers from -100% - 0 represent cell death. For example, a value of 40 represents 60% growth inhibition. […]
The panel holds about 83,000 compounds, 20% with a hit somewhere; the sample as a whole holds those more often.
Endpoint name: growth (%)
Provide only the numeric value, understood in %.

Observe how each entry below is paired with its result.
[
  {
    "Compound": "COc1cc(C2C3=C(COC3=O)N(CCO)c3cc4c(cc32)OCCO4)cc(OC)c1O (stereo not given)",
    "Uom": "%",
    "Observed": 76.5
  },
  {
    "Compound": "O=C1/C(=C\\c2ccc[nH]2)c2ccccc2N1c1ccccc1",
    "Uom": "%",
    "Observed": 106
  },
  {
    "Compound": "COc1cc(C(=O)NN=C2c3ccccc3-c3ccccc32)cc(OC)c1OC",
    "Uom": "%",
    "Observed": 6.51
  },
  {
    "Compound": "COc1ccc(/C=C/C(=O)c2c(C)nc3ccccc3c2/C=C/c2ccccc2)c(OC)c1",
    "Uom": "%",
    "Observed": 95.9
  },
  {
    "Compound": "COc1cc(C(C)n2cc(-c3ccccc3)nn2)ccc1OC1CCCCC1 (stereo not given)",
    "Uom": "%",
    "Observed": 92.8
  }
]

Q. Given "C=C[C@@H]1CCC/C=C/[C@@H]2C[C@H](O)C[C@H]2[C@H](O)/C=C/C(=O)O1" , state its recorded growth.
A. -1.5

Q. # iterate: "O=C(NC(=S)Nc1cccc(NC(=S)NC(=O)c2ccccc2)c1)c1ccccc1"
A. 66.1

Q. # iterate: "CC1=C(CC(=O)c2cccc([N+](=O)[O-])c2)C(=O)c2ccccc2C1=O"
A. -36.2

Q. # iterate: "CCCCCCCCCCOC(=O)c1ccccc1C(=O)OCCCC"
A. 111

Q. # iterate: "CCC(C)(C)C(=O)O[C@H]1C[C@@H](C)C=C2C=C[C@H](C)[C@H](CC[C@@H]3CC=CC(=O)O3)[C@H]21"
A. 86.1

Q. # iterate: "Cn1nc(C(F)(F)F)c(-c2ccc(Cl)c(C(F)(F)F)c2)c1-c1ccc(OCc2ccc(Cl)cc2)cc1O"
A. 1.95

Q. # iterate: "COc1cc(C(=O)Nc2ccc(-c3nc4ccccc4[nH]3)cc2)cc(OC)c1OC"
A. 105

Q. # iterate: "O=C(/C=C/c1ccc(C(F)(F)F)cc1)c1ccc(Nc2nc(NCCO)nc(Nc3ccc(Cl)cc3)n2)cc1"
A. 99.9
